Test: DUX4 transcriptional activity inhibition in cells – 293T cells, Gaussia and Italica luciferase, primary screen (AID 1224904)
Settings: 293T-iDUX4 ZSCAN4-Gaussia luciferase reporter, 24 h; measured here: selective DUX4 reporter inhibition; stronger effect = lower value; concentration not given here
Out of some 37,000 compounds screened, about 290 (0.78%) were called active. Another 10% or so got no clear call; they are omitted. Only a selection was taken, and actives are over-represented in it overall.
This section presents molecules with their documented Gaussia minus Italica difference values.

The examples below pair each entry with its known result.
smiles_record | Gaussia minus Italica difference
CCNC(=O)[C@H]1[C@H](CO)[C@H]2Cn3c(ccc(-c4ccc(OC)cc4)c3=O)[C@H]2N1Cc1ccccc1 | 0.354%
COCCN(C[C@H]1[C@@H](c2ccccc2)[C@H](CO)N1C(=O)C1CCC1)C(C)=O | -7.51%
CO[C@H]1CN(C)C(=O)c2ccc(NC(=O)Nc3ccccc3)cc2OC[C@@H](C)N(C(=O)CC2CC2)C[C@@H]1C | -11.9%
CCCNC(=O)C[C@@H]1CC[C@H]2[C@H](COc3ccc(NS(=O)(=O)c4ccccc4C)cc3C(=O)N2C)O1 | -5.61%
CCCNC(=O)N(C)C[C@@H]1Oc2ncc(C#CCc3ccccc3)cc2C(=O)N([C@@H](C)CO)C[C@H]1C | 1.6%

Recall and state the measured Gaussia minus Italica difference for `Cc1cc(C(=O)Nc2ccc3c(c2)C(=O)N(C)[C@H]2CC[C@H](CC(=O)NCC(F)(F)F)O[C@@H]2CO3)no1` .
-4.67%

Recall and state the measured Gaussia minus Italica difference for `CCCN1C[C@@H](C)[C@@H](OC)CN(C)C(=O)c2cc(NC(=O)Nc3cccc(F)c3)ccc2OC[C@@H]1C` .
-3.7%

Recall and state the measured Gaussia minus Italica difference for `CN1CCN(C(=O)C[C@@H]2CC[C@@H]3[C@H](COC[C@@H](O)CN3Cc3cccc(F)c3)O2)CC1` .
5.51%

Recall and state the measured Gaussia minus Italica difference for `C[C@H]1CN([C@@H](C)CO)S(=O)(=O)c2ccc(-c3ccncc3)cc2O[C@H]1CN(C)S(C)(=O)=O` .
-5.48%

Recall and state the measured Gaussia minus Italica difference for `COCC#Cc1cnc2c(c1)C(=O)N([C@H](C)CO)C[C@H](C)[C@H](CN(C)Cc1ccc(-c3ccccc3)cc1)O2` .
0.393%

---

Assay: DUX4 transcriptional activity inhibition in cells – 293T cells, Gaussia and Italica luciferase, primary screen (AID 1224904)
Details: 293T-iDUX4 ZSCAN4-Gaussia luciferase reporter, 24 h; measured here: selective DUX4 reporter inhibition; stronger effect = lower value; concentration not given here
Screen size: about 37,000 compounds; about 290 (0.78%) were called active. Roughly 10% stayed inconclusive and do not appear here. The full list was thinned out, with actives kept by preference.
This section presents compounds with their documented Gaussia minus Italica difference values.
Respond with the bare value in %.

The examples below pair each entry with its known result.
smiles_record | Gaussia minus Italica difference / %
CCC(=O)N1C[C@@H](O)COC[C@H]2O[C@H](CC(=O)NCC3CCCCC3)CC[C@@H]21 | 1.57
COc1cccc(-c2ccc([C@@H]3[C@@H](CO)N(C(=O)c4ccccn4)[C@H]3C#N)cc2)c1 | 7.74
O=C(Nc1ccccc1)N1C[C@H]2[C@@H](c3ccccc31)[C@H](CO)N2Cc1ccc(F)cc1 | -5.35

Recall and state the measured Gaussia minus Italica difference for `O=C(C[C@@H]1CC[C@@H](NC(=O)Nc2ccc(F)cc2)[C@@H](CO)O1)NCCN1CCCC1` .
4.34

Recall and state the measured Gaussia minus Italica difference for `COc1ccc2c3c(n(C)c2c1)[C@H](CO)N(Cc1ccc(F)cc1)CC31CCN(C)CC1` .
-2.85

Recall and state the measured Gaussia minus Italica difference for `CN1C(=O)c2cc(NC(=O)c3ccc(Cl)cc3)ccc2OC[C@@H]2O[C@@H](CC(=O)O)CC[C@H]21` .
0.834

Recall and state the measured Gaussia minus Italica difference for `COCC(=O)Nc1ccc2c(c1)C(=O)N(C)[C@@H]1CC[C@H](CC(=O)NCCc3ccccc3)O[C@@H]1CO2` .
-4.5

Recall and state the measured Gaussia minus Italica difference for `CC(C)[C@@H]1COCn2nncc2CCCC(=O)N1` .
-13.2

---

Assay: DUX4 transcriptional activity inhibition in cells – 293T cells, Gaussia and Italica luciferase, primary screen (AID 1224904);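 on activity change, negative = inhibition: 0% = median of neutral control wells and -100% = median of positive control wells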
Details: 293T-iDUX4 ZSCAN4-Gaussia luciferase reporter, 24 h; stronger effect = lower value; concentration not given here
Screen size: about 37,000 compounds; about 290 (0.78%) were called active. Inconclusive results (about 10%) are left out. The list comes from a sample in which actives are over-represented; it also holds close analogues and randomly drawn compounds.
This section presents compounds with their documented activity change, negative = inhibition values.
Respond with the bare value in %.

smiles_record | unit_abbreviation | activity change, negative = inhibition
COc1ccc(CNC(=O)C[C@H]2C[C@@H]3c4cc(NC(=O)NC5CCCC5)ccc4O[C@@H]3[C@H](CO)O2)cc1 | % | 8.81
O=C(NC[C@@H]1[C@@H](c2ccccc2)[C@H](CO)N1C(=O)Cc1cccnc1)C1CC1 | % | 3.18

Recall and state the measured activity change, negative = inhibition for `Cc1ccccc1S(=O)(=O)Nc1ccc2c(c1)C(=O)N(C)[C@@H]1CC[C@@H](CC(=O)O)O[C@@H]1CO2` .
-2.51

Recall and state the measured activity change, negative = inhibition for `CN(C)C(=O)C[C@@H]1C[C@H]2c3cc(NC(=O)Nc4ccccc4F)ccc3O[C@H]2[C@@H](CO)O1` .
1.79

---

This section presents compounds with their documented Gaussia minus Italica difference values.
Assay: DUX4 transcriptional activity inhibition in cells – 293T cells, Gaussia and Italica luciferase, primary screen (AID 1224904)
Settings: 293T-iDUX4 ZSCAN4-Gaussia luciferase reporter, 24 h; measured here: selective DUX4 reporter inhibition; stronger effect = lower value; concentration not given here
Hit rate of the full screen: of about 37,000 compounds, about 290 (0.78%) were called active. About 10% were inconclusive and are not listed. Many of the other results were omitted from the sample, so actives are more common in it than they were.
Respond with the bare value in %.

The examples below pair each entry with its known result.
compound | endpoint_name | experimental_result
CN1C(=O)c2cc(NC(=O)c3cscn3)ccc2OC[C@H]2O[C@@H](CC(=O)NCC3CC3)CC[C@H]21 | Gaussia minus Italica difference | -1.61
CN(C)C(=O)c1cccc(-c2ccc(C3[C@@H]4CN(S(=O)(=O)c5ccc(F)cc5)C[C@H]3N4)cc2)c1 (some centres not stated) | Gaussia minus Italica difference | 4.34
CNC[C@H]1Oc2ncc(C#Cc3ccccc3F)cc2C(=O)N([C@H](C)CO)C[C@H]1C | Gaussia minus Italica difference | -1.72
COc1ccc(NC(=O)N2C[C@H](O)COC[C@@H]3O[C@@H](CC(=O)NCc4ccccc4OC)CC[C@H]32)cc1 | Gaussia minus Italica difference | -0.496

Recall and state the measured Gaussia minus Italica difference for `COc1ccc2c3c([nH]c2c1)[C@@H](CO)N(C(=O)NC(C)C)CC31CN(C(=O)C2CCCC2)C1` .
6.4

Recall and state the measured Gaussia minus Italica difference for N#Cc1ccc(-c2ccc(C3[C@@H]4CN(S(=O)(=O)c5ccc(F)cc5)C[C@H]3N4)cc2)cc1 (some centres not stated) .
-27.5

---

Experiment: DUX4 transcriptional activity inhibition in cells – 293T cells, Gaussia and Italica luciferase, primary screen (AID 1224904);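 on activity change, negative = inhibition: 0% = median of neutral control wells and -100% = median of positive control wells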
Conditions: 293T-iDUX4 ZSCAN4-Gaussia luciferase reporter, 24 h; measured here: Italica tet-on control reporter; stronger effect = lower value; concentration not given here
Out of some 37,000 compounds screened, about 290 (0.78%) were called active. Another 10% or so got no clear call; they are omitted. The sample holds actives, similar compounds and a random draw of the others, so the mix is not that of the screen.
This section presents compounds with their documented activity change, negative = inhibition values.
Respond with the bare value in %.

The examples below pair each entry with its known result.
compound | unit_abbreviation | activity change, negative = inhibition
CCCN1C[C@@H](C)[C@@H](OC)CN(C)C(=O)c2cc(NC(=O)Nc3cccc(F)c3)ccc2OC[C@@H]1C | % | -5.66
COc1ccccc1NC(=O)N1[C@@H]2CNC[C@H]1C2c1ccc(-c2ccccc2C)cc1 (some centres not stated) | % | 3.5
CCC(=O)N1CC2(C1)[C@@H](c1ccc(-c3ccc(C#N)cc3)cc1)[C@H](CO)N2C(C)=O | % | -1.24

Recall and state the measured activity change, negative = inhibition for `CCCNC(=O)N(C)C[C@@H]1Oc2ncc(C#CCc3ccccc3)cc2C(=O)N([C@@H](C)CO)C[C@H]1C` .
3.94

Recall and state the measured activity change, negative = inhibition for `O=C(Nc1ccccc1F)N1C[C@H]2[C@@H](c3ccccc31)[C@H](CO)N2C(=O)c1ccccn1` .
-2.86

---

Test: DUX4 transcriptional activity inhibition in cells – 293T cells, Gaussia and Italica luciferase, primary screen (AID 1224904)
Conditions: 293T-iDUX4 ZSCAN4-Gaussia luciferase reporter, 24 h; measured here: selective DUX4 reporter inhibition; stronger effect = lower value; concentration not given here
Screen size: about 37,000 compounds; about 290 (0.78%) were called active. Roughly 10% stayed inconclusive and do not appear here. For the sample, actives were picked, then their nearest neighbours and some compounds at random.
This section presents compounds with their documented Gaussia minus Italica difference values.
Respond with the bare value in %.

The examples below pair each entry with its known result.
smiles_record | endpoint_name | unit_abbreviation | experimental_result
COc1cccc(C#Cc2ccc3c(c2)[C@@H]2[C@@H](CCN2S(=O)(=O)c2ccc(C)cc2)[C@@H](CO)N3)c1 | Gaussia minus Italica difference | % | -3.21
COc1ccc2c3c([nH]c2c1)[C@@H](CO)N(Cc1cc(F)ccc1F)CC31CN(C(=O)C2CCC2)C1 | Gaussia minus Italica difference | % | -33.6

Recall and state the measured Gaussia minus Italica difference for `CCCC(=O)Nc1ccc2c(c1)C(=O)N(C)[C@@H]1CC[C@H](CC(=O)NCCN3CCCCC3)O[C@@H]1CO2` .
-6.6

Recall and state the measured Gaussia minus Italica difference for `O=C(NCC1CC1)[C@@H]1[C@@H](CO)[C@@H]2Cn3c(ccc(-c4ccncc4)c3=O)[C@@H]2N1Cc1cocn1` .
1.11

Recall and state the measured Gaussia minus Italica difference for `CCC(=O)N1[C@H](C(=O)NCc2ccc(F)cc2)[C@@H](CO)[C@@H]2Cn3c(ccc(C4=CCCCC4)c3=O)[C@@H]21` .
8.61

Recall and state the measured Gaussia minus Italica difference for `Cn1cnc(CCNC(=O)C[C@H]2CC[C@H]3[C@@H](COC[C@H](O)CN3C(=O)C3CCCC3)O2)c1` .
6.41
